Target: Kappa-type opioid receptor (Cavia porcellus) (UniProt P41144)
Sequence (P41144 whole entry): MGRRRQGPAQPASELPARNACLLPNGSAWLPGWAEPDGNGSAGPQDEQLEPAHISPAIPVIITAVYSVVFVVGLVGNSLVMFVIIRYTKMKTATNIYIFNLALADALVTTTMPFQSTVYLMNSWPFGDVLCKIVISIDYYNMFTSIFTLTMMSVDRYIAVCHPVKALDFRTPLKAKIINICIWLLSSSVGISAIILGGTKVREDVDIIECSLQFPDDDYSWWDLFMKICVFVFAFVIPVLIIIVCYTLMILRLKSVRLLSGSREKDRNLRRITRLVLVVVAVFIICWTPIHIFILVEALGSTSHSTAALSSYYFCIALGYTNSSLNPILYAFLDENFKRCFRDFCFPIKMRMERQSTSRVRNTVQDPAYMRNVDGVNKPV
Assay: Opioid receptor kappa antagonistic activity was measured by the displacement of ethylketazocine in the guinea pig ileum at a concentration of 100 nM
Type: functional, tissue-based
Assignment: determine reported IC50 ratio for the given molecules.
Reply briefly: the number, and no unit.

Prompt: Indicate the recorded IC50 ratio value for this molecule: Cc1cccc2c3c([nH]c12)[C@@H]1Oc2c(O)ccc4c2[C@@]12CCN(CC1CC1)[C@H](C4)[C@]2(O)C3
Completion: 1.3

Prompt: Indicate the recorded IC50 ratio value for this molecule: Cc1ccc2[nH]c3c(c2c1)C[C@@]1(O)[C@H]2Cc4ccc(O)c5c4[C@@]1(CCN2CC1CC1)[C@H]3O5
Completion: 1.4

Prompt: Indicate the recorded IC50 ratio value for this molecule: Oc1ccc2c3c1O[C@H]1c4[nH]c5c(O)cccc5c4C[C@@]4(O)[C@@H](C2)N(CC2CC2)CC[C@]314
Completion: 1.4

Prompt: Indicate the recorded IC50 ratio value for this molecule: Cc1ccc2c3c([nH]c2c1)[C@@H]1Oc2c(O)ccc4c2[C@@]12CCN(CC1CC1)[C@H](C4)[C@]2(O)C3
Completion: 1.7

Prompt: Indicate the recorded IC50 ratio value for this molecule: C=CCN1CC[C@]23c4c5ccc(O)c4O[C@H]2c2[nH]c4ccccc4c2C[C@@]3(O)[C@H]1C5
Completion: 2.2

Prompt: Indicate the recorded IC50 ratio value for this molecule: CCOc1cccc2c3c([nH]c12)[C@@H]1Oc2c(O)ccc4c2[C@@]12CCN(CC1CC1)[C@H](C4)[C@]2(O)C3
Completion: 0.67

----------
Molecular target: Opioid receptors; mu & delta (Homo sapiens) (UniProt P41143+P35372)
Sequence (P35372 whole entry, looked up): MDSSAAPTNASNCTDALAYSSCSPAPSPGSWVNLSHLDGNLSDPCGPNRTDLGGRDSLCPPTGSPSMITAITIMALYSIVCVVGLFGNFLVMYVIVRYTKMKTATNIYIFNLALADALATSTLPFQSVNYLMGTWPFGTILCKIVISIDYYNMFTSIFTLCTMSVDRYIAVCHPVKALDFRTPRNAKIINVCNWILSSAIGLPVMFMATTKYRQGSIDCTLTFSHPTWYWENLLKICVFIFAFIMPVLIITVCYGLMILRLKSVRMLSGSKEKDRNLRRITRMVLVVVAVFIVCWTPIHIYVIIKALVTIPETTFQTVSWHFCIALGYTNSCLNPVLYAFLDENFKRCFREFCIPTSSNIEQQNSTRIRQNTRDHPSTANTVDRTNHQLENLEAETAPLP
Sequence (P41143 whole entry, looked up): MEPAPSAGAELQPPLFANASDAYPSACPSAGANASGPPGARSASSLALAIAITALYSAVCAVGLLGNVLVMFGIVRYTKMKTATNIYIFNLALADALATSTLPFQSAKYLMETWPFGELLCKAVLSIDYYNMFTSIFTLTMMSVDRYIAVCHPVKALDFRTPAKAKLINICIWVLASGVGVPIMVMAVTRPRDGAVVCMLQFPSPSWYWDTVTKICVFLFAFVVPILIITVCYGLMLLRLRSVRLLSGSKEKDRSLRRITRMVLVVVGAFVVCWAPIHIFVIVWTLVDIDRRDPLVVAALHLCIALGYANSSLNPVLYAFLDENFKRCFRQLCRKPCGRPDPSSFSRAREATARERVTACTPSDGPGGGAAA
Test: Selectivity ratio was determined from Ke value of Opioid receptor mu 1 and Opioid receptor delta 1
Format: protein assay
Conditions: Cavia porcellus
Where a SMILES comes first, the peptide text is derived from it. [ ]: non-standard residue; d: D form. The star is where a group is joined. Tyr(Nα,Nα-allyl2) = C=CCN(CC=C)[C@@H](Cc1ccc(O)cc1)C(=O)*; Aib = CC(C)(N)C(=O)O
OBSERVED_PROPERTY: Selectivity ratio

Prompt: Indicate the recorded Selectivity ratio value for this molecule: O=[N+]([O-])c1ccc2[nH]c3c(c2c1)C[C@@]1(O)[C@H]2Cc4ccc(O)c5c4[C@@]1(CCN2CC1CC1)[C@H]3O5
Completion: > 1.6

Prompt: Indicate the recorded Selectivity ratio value for this molecule: Oc1ccc2c3c1O[C@H]1c4[nH]c5cc6ccccc6cc5c4C[C@@]4(O)[C@@H](C2)N(CC2CC2)CC[C@]314
Completion: > 4

Prompt: Indicate the recorded Selectivity ratio value for this molecule: Oc1ccc2c3c1O[C@H]1c4[nH]c5cc(F)ccc5c4C[C@@]4(O)[C@@H](C2)N(CC2CC2)CC[C@]314
Completion: > 28

Prompt: Indicate the recorded Selectivity ratio value for this molecule: C=CCN(CC=C)[C@@H](Cc1ccc(O)cc1)C(=O)NC(C)(C)C(=O)NC(C)(C)C(=O)N[C@@H](Cc1ccccc1)C(=O)N[C@@H](CC(C)C)C(=O)O ({Tyr(Nα,Nα-allyl2)}-[Aib][Aib]FL-OH)
Completion: > 24

Prompt: Indicate the recorded Selectivity ratio value for this molecule: COc1ccc2[nH]c3c(c2c1)C[C@@]1(O)[C@H]2Cc4ccc(O)c5c4[C@@]1(CCN2CC1CC1)[C@H]3O5
Completion: > 16

----------
Assignment: determine reported Ke for the given compounds.
Molecular target: Delta-type opioid receptor (Mus musculus) (UniProt P32300)
Sequence (P32300 whole entry): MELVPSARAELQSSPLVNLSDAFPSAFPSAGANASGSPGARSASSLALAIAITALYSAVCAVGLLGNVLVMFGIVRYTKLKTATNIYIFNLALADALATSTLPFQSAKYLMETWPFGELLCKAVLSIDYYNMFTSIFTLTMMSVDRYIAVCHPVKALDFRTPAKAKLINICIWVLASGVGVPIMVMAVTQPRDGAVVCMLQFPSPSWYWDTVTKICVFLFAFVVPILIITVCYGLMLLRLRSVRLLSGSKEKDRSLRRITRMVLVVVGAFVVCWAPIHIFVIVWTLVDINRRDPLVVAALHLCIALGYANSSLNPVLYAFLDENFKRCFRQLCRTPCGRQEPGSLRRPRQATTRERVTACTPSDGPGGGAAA
Assay: Antagonist potency was determined as the ratio of [antagonist] to (IC50 ratio-1) for opioid receptor delta 1
Type: functional
Number only, in nM; omit the unit.

Prompt: Indicate the recorded Ke value for this compound: Oc1ccc2c3c1O[C@H]1c4[nH]c5c(O)cccc5c4C[C@@]4(O)[C@@H](C2)N(CC2CC2)CC[C@]314
Completion: 0.42

Prompt: Indicate the recorded Ke value for this compound: CCOc1cccc2c3c([nH]c12)[C@@H]1Oc2c(O)ccc4c2[C@@]12CCN(CC1CC1)[C@H](C4)[C@]2(O)C3
Completion: 0.57

Prompt: Indicate the recorded Ke value for this compound: Oc1ccc2c3c1O[C@H]1c4[nH]c5c(F)cccc5c4C[C@@]4(O)[C@@H](C2)N(CC2CC2)CC[C@]314
Completion: 0.35

Prompt: Indicate the recorded Ke value for this compound: Oc1ccc2c3c1O[C@H]1c4[nH]c5cc(F)ccc5c4C[C@@]4(O)[C@@H](C2)N(CC2CC2)CC[C@]314
Completion: 4.4

Prompt: Indicate the recorded Ke value for this compound: COc1cccc2c3c([nH]c12)[C@@H]1Oc2c(O)ccc4c2[C@@]12CCN(CC1CC1)[C@H](C4)[C@]2(O)C3
Completion: 1.5

----------
Target: Mu-type opioid receptor (Cavia porcellus) (UniProt P97266)
Sequence (P97266 whole entry): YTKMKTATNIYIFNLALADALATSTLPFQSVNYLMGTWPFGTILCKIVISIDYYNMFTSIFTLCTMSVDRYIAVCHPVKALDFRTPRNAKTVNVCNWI
Experiment: Opioid receptor mu 1 antagonistic activity was measured by the displacement of morphine in the guinea pig ileum at a concentration of 100 nM
Format: functional, tissue-based
Rule: IC50 ratio below 3 gives Yes, anything at or above gives No.

Prompt: Given the entry COc1ccc2c3c1O[C@H]1c4[nH]c5ccccc5c4C[C@@]4(O)[C@@H](C2)N(CC2CC2)CC[C@]314 , would its reported IC50 ratio be below 3?
Completion: Yes

Prompt: Given the entry Cc1cccc2c3c([nH]c12)[C@@H]1Oc2c(O)ccc4c2[C@@]12CCN(CC1CC1)[C@H](C4)[C@]2(O)C3 , would its reported IC50 ratio be below 3?
Completion: No

Prompt: Given the entry CN1CC[C@]23c4c5ccc(O)c4O[C@H]2c2[nH]c4ccccc4c2C[C@@]3(O)[C@H]1C5 [OXYMORPHINDOLE] , would its reported IC50 ratio be below 3?
Completion: Yes

Prompt: Given the entry Oc1ccc2c3c1O[C@H]1c4[nH]c5c(Br)cccc5c4C[C@@]4(O)[C@@H](C2)N(CC2CC2)CC[C@]314 , would its reported IC50 ratio be below 3?
Completion: Yes

Prompt: Given the entry Oc1ccc2c3c1O[C@H]1c4[nH]c5cc6ccccc6cc5c4C[C@@]4(O)[C@@H](C2)N(CC2CC2)CC[C@]314 , would its reported IC50 ratio be below 3?
Completion: Yes

Prompt: Given the entry Cc1ccc2c3c([nH]c2c1)[C@@H]1Oc2c(O)ccc4c2[C@@]12CCN(CC1CC1)[C@H](C4)[C@]2(O)C3 , would its reported IC50 ratio be below 3?
Completion: Yes

Prompt: Given the entry CCOc1cccc2c3c([nH]c12)[C@@H]1Oc2c(O)ccc4c2[C@@]12CCN(CC1CC1)[C@H](C4)[C@]2(O)C3 , would its reported IC50 ratio be below 3?
Completion: No

----------
Target: Mu-type opioid receptor (Cavia porcellus)
Experiment: Opioid receptor mu antagonistic activity was measured by the displacement of morphine in the guinea pig ileum at a concentration of 100 nM
Assay type: functional, tissue-based
Where a SMILES comes first, the peptide text is derived from it. [ ]: non-standard residue; d: D form. The star is where a group is joined. Tyr(Nα,Nα-allyl2) = C=CCN(CC=C)[C@@H](Cc1ccc(O)cc1)C(=O)*; Aib = CC(C)(N)C(=O)O
Assignment: determine reported IC50 ratio for the given compounds.

Prompt: Indicate the recorded IC50 ratio value for this compound: Oc1ccc2[nH]c3c(c2c1)C[C@@]1(O)[C@H]2Cc4ccc(O)c5c4[C@@]1(CCN2CC1CC1)[C@H]3O5
Completion: 6.4

Prompt: Indicate the recorded IC50 ratio value for this compound: Cc1ccc2c3c([nH]c2c1)[C@@H]1Oc2c(O)ccc4c2[C@@]12CCN(CC1CC1)[C@H](C4)[C@]2(O)C3
Completion: 2.8

Prompt: Indicate the recorded IC50 ratio value for this compound: Oc1ccc2c3c1O[C@H]1c4[nH]c5c(O)cccc5c4C[C@@]4(O)[C@@H](C2)N(CC2CC2)CC[C@]314
Completion: 1.9

Prompt: Indicate the recorded IC50 ratio value for this compound: COc1cccc2c3c([nH]c12)[C@@H]1Oc2c(O)ccc4c2[C@@]12CCN(CC1CC1)[C@H](C4)[C@]2(O)C3
Completion: 3

Prompt: Indicate the recorded IC50 ratio value for this compound: Cc1cccc2c3c([nH]c12)[C@@H]1Oc2c(O)ccc4c2[C@@]12CCN(CC1CC1)[C@H](C4)[C@]2(O)C3
Completion: 7.1

Prompt: Indicate the recorded IC50 ratio value for this compound: Oc1ccc2c3c1O[C@H]1c4[nH]c5cc6ccccc6cc5c4C[C@@]4(O)[C@@H](C2)N(CC2CC2)CC[C@]314
Completion: 0.85

Prompt: Indicate the recorded IC50 ratio value for this compound: C=CCN(CC=C)[C@@H](Cc1ccc(O)cc1)C(=O)NC(C)(C)C(=O)NC(C)(C)C(=O)N[C@@H](Cc1ccccc1)C(=O)N[C@@H](CC(C)C)C(=O)O ({Tyr(Nα,Nα-allyl2)}-[Aib][Aib]FL-OH)
Completion: 0.6

Prompt: Indicate the recorded IC50 ratio value for this compound: Oc1ccc2c3c1O[C@H]1c4[nH]c5cc(F)ccc5c4C[C@@]4(O)[C@@H](C2)N(CC2CC2)CC[C@]314
Completion: 1.8
